Reference source: the Immune Epitope Database (IEDB)

- assay_target: HLA-B*07:02
- assay_explanation: IEDB peptide-MHC binding, purified MHC/direct/fluorescence; filed as Kd, often an IC50 or EC50 that approximates it; bounds were set here for any values at or beyond the usual limits of such assays
- condition_label: source organism: Escherichia coli
pKd: −log10 of the molar value.

residues | pKd
DPRDDLSGM | 5.11

----------
- assay_target: HLA-A*68:02
- assay_explanation: IEDB peptide-MHC binding, purified MHC/competitive/radioactivity; filed as Kd, often an IC50 or EC50 that approximates it; bounds were set here for any values at or beyond the usual limits of such assays
- condition_label: source organism: Dengue virus 4 Philippines/H241/1956
pKd: −log10 of the molar value.
readout_type: pKd

residues | test_result
WVSGVSGNI | 8.00

----------
- assay_target: HLA-A*01:01
- assay_explanation: IEDB peptide-MHC binding, purified MHC/competitive/fluorescence; filed as Kd, often an IC50 or EC50 that approximates it; bounds were set here for any values at or beyond the usual limits of such assays
- condition_label: source organism: Cryptosporidium parvum Iowa II
readout_type: Kd

residues | readout_type | test_result
TVFRNQNRV | Kd | ≥ 5 µM

----------
- assay_target: HLA-A*02:12
- assay_explanation: IEDB peptide-MHC binding, purified MHC/direct/fluorescence; filed as Kd, often an IC50 or EC50 that approximates it; bounds were set here for any values at or beyond the usual limits of such assays
- condition_label: source organism: Giardia lamblia ATCC 50803

residues | Kd
YLDMVLAFL | ≤ 1 nM

----------
- assay_target: HLA-B*27:05
- assay_explanation: IEDB peptide-MHC binding, purified MHC/competitive/fluorescence; filed as Kd, often an IC50 or EC50 that approximates it; bounds were set here for any values at or beyond the usual limits of such assays
- condition_label: source organism: Entamoeba histolytica HM-1:IMSS
pKd: −log10 of the molar value.
readout_type: pKd

residues | readout_type | test_result
IESNPLFPV | pKd | ≤ 5.30

----------
- assay_target: HLA-A*68:02
- assay_explanation: IEDB peptide-MHC binding, purified MHC/direct/fluorescence; filed as Kd, often an IC50 or EC50 that approximates it; bounds were set here for any values at or beyond the usual limits of such assays
- condition_label: source organism: Salmonella enterica
pKd: −log10 of the molar value.

residues | assay_target | pKd
MGKTITDVK | HLA-A*68:02 | ≤ 4.70

----------
Measured Kd by item
- assay_target: HLA-B*58:01
- assay_explanation: IEDB peptide-MHC binding, purified MHC/competitive/radioactivity; filed as Kd, often an IC50 or EC50 that approximates it; bounds were set here for any values at or beyond the usual limits of such assays
- condition_label: source organism: Dengue virus 3 Martinique/1243/1999

residues | Kd (nM)
PATLLVWHTW | 278
WMAEIPLQW | 13.8
KAKGSRAIW | 279
GATTETPTW | 2.08

----------
- assay_target: HLA-B*07:02
- assay_explanation: IEDB peptide-MHC binding, purified MHC/direct/fluorescence; filed as Kd, often an IC50 or EC50 that approximates it; bounds were set here for any values at or beyond the usual limits of such assays
- condition_label: source organism: Lassa virus Josiah
pKd: −log10 of the molar value.

residues | pKd
LPTKLRPSA | 6.99

----------
- assay_target: HLA-A*02:03
- assay_explanation: IEDB peptide-MHC binding, purified MHC/direct/fluorescence; filed as Kd, often an IC50 or EC50 that approximates it; bounds were set here for any values at or beyond the usual limits of such assays
- condition_label: source organism: Variola virus
pKd: −log10 of the molar value.

residues | pKd
DLYDMIHNV | 8.22
